Recorded half-life by entry
Test: Half-life at pH of 5.5-6.0 at 4 degree Centigrade
Conditions: pH 5.5-6.0

Query: Request the reported half-life associated with CC(C)(Cl)C(C)(C)NCC(O)Cn1ccnc1[N+](=O)[O-].Cl (centres undefined)
Reply: < 2 min

Query: Which half-life is listed for Br.CC(C)(Br)C(C)(C)NCC(O)Cn1ccnc1[N+](=O)[O-] (centres undefined) ?
Reply: < 2 min

Query: Which half-life is reported for this compound? Br.CC(C)(CBr)NCC(O)Cn1ccnc1[N+](=O)[O-] (centres undefined)
Reply: < 5 min

***
Query: Given the compound CC(C)(CCl)NCC(O)Cn1ccnc1[N+](=O)[O-].Cl (centres undefined) , what is its reported half-life?
Reply: 76 min
